# assay comment: in vivo
# experimental setup: male, mouse, in vivo, po, 50 mg/kg
parameter: Cmax

CNC(=O)CCCn1c(-c2cncc3ccccc23)nc2cccc(C(=O)N[C@@H](C)c3ccc4ccccc4c3)c21 has a reported Cmax of 8.93 µM

====

# assay comment: in vivo
# experimental setup: male, mouse, in vivo, po, 50 mg/kg
parameter: AUC(0-inf) (µM·h)
The figure you give is taken to be in µM·h; do not add the unit.

# compound CNC(=O)CCCn1c(-c2cncc3ccccc23)nc2cccc(C(=O)N[C@@H](C)c3ccc4ccccc4c3)c21 [CDD-1845] ; its AUC(0-inf) = 14.9

====

# subject of test: SARS-CoV-2 M^pro (Severe acute respiratory syndrome coronavirus 2, UniProt P0DTD1)
# Construct: the gene for M^pro (ORF1ab residues 3264 to 3569, GenBank code: MN908947.3); Sumo fusion with M^pro cleavage site (SAVLQ↓SGFRK) (N, cleaved yes); 6xHis-tag behind PreScission site (SGVTFQ↓GP) (C); made in house; host or cells: E. coli BL21(DE3)
# assay comment: M^pro enzyme inhibition assay, proteolytic cleavage of fluorescent peptide reporter, Ki by Morrison equation
# Format: biochemical
# experimental setup: 25 nM Mpro-6-His; standard error from triplicates; Inactive: less than 50% inhibition with 25 µM compound in initial screening; read-out: Mpro-His Ki
parameter: pKi
To interpret pKi, take it as minus log10 of a concentration measured in moles per litre.

SARS-CoV-2 M^pro (Severe acute respiratory syndrome coronavirus 2, UniProt P0DTD1) data for CCC[C@H](NC(=O)c1cccc2nc(-c3cncc4ccccc34)n(CCCC(=O)NC)c12)c1ccc(C(F)(F)F)cc1 [CDD-1830] ; its pKi: 8.22

====

Ki: recorded values
# subject of test: SARS-CoV-2 M^pro (Severe acute respiratory syndrome coronavirus 2)
# Construct: the gene for M^pro (ORF1ab residues 3264 to 3569, GenBank code: MN908947.3); Sumo fusion with M^pro cleavage site (SAVLQ↓SGFRK) (N, cleaved yes); 6xHis-tag behind PreScission site (SGVTFQ↓GP) (C); made in house; host or cells: E. coli BL21(DE3)
# assay comment: M^pro enzyme inhibition assay, proteolytic cleavage of fluorescent peptide reporter, Ki by Morrison equation
# Format: biochemical
# experimental setup: 25 nM Mpro with authentic termini (no His-tag); standard error from triplicates; Inactive: less than 50% inhibition with 25 µM compound; read-out: Mpro Ki
// note: answer is a bare numeric in nM

Some molecules with recorded Ki:
CNC(=O)[C@H]1C[C@H](n2c(-c3cncc4ccccc34)nc3cccc(C(=O)N[C@@H](C)c4ccc(C(F)(F)F)cc4)c32)C1 ... 48
CCC[C@H](NC(=O)c1cccc2nc(-c3cncc4ccccc34)n(CCCC(=O)NC)c12)c1ccc(C(F)(F)F)cc1 ... 6
CCC[C@H](NC(=O)c1cccc2nc(-c3cncc4ccccc34)n([C@H]3C[C@H](C(=O)NC)C3)c12)c1ccc(OC(F)F)cc1 ... 16

Read the next record carefully.
For CCC[C@H](NC(=O)c1cccc2nc(-c3cncc4ccccc34)n([C@H]3C[C@H](C(=O)NC)C3)c12)c1cccc(C(F)(F)F)c1 the molecule record lists Ki as 35

====

# assay comment: Pharmacokinetics in mice
# experimental setup: male, mouse, plasma, oral, 50 mg/kg
parameter: half-life (h)
Expressed in h, but write only the number.

CNC(=O)CCCn1c(-c2cncc3ccccc23)nc2cccc(C(=O)N[C@@H](C)c3ccc4ccccc4c3)c21 [CDD-1845] ... 1.1

Continue with the next molecule.
Noted for CNC(=O)[C@H]1C[C@H](n2c(-c3cncc4ccccc34)nc3cccc(C(=O)N[C@@H](C)c4ccc5ccccc5c4)c32)C1 [CDD-1819] : its half-life reads 1.2

====

The reader will find reported Ki values listed item by item below.
# subject of test: SARS-CoV-2 M^pro (Severe acute respiratory syndrome coronavirus 2, UniProt P0DTD1)
# Construct: the gene for M^pro (ORF1ab residues 3264 to 3569, GenBank code: MN908947.3); Sumo fusion with M^pro cleavage site (SAVLQ↓SGFRK) (N, cleaved yes); 6xHis-tag behind PreScission site (SGVTFQ↓GP) (C); made in house; host or cells: E. coli BL21(DE3)
# assay comment: M^pro enzyme inhibition assay, proteolytic cleavage of fluorescent peptide reporter, Ki by Morrison equation
# Type: biochemical
# experimental setup: read-out: Mpro Ki
Value expressed in nM; do not type the unit.

Short answer for CCC[C@H](NC(=O)c1cccc2nc(-c3cncc4ccccc34)n([C@H]3CC[C@H](C(=O)NC)C3)c12)c1ccc(C(F)(F)F)cc1 [CDD-1790] : Ki was 664

// Ki value for CNC(=O)[C@H]1C[C@H](n2c(-c3cncc4ccccc34)nc3cccc(C(=O)N[C@@H](C)c4ccccc4)c32)C1 [CDD-1841] : 565

====

Quick list: Tmax per entry.
# assay comment: in vivo
# experimental setup: male, mouse, in vivo, po, 50 mg/kg
Report only the number, with the unit min understood.

CNC(=O)[C@H]1C[C@H](n2c(-c3cncc4ccccc34)nc3cccc(C(=O)N[C@@H](C)c4ccc5ccccc5c4)c32)C1 ... 19.8

So for CNC(=O)CCCn1c(-c2cncc3ccccc23)nc2cccc(C(=O)N[C@@H](C)c3ccc4ccccc4c3)c21 , the logged Tmax turned out to be 19.8

====

# assay comment: in vivo
# experimental setup: male, mouse, in vivo, po, 50 mg/kg
parameter: AUC(0-t) (µM·h)
Your answer should be a plain number; it is taken to be in µM·h.

Notebook: CNC(=O)CCCn1c(-c2cncc3ccccc23)nc2cccc(C(=O)N[C@@H](C)c3ccc4ccccc4c3)c21 [CDD-1845] , AUC(0-t) read as 14.9

====

# assay comment: Pharmacokinetics in mice
# experimental setup: male, mouse, plasma, po, 50 mg/kg
parameter: half-life (h)
Hi! Could you send only the number? It should be in h, unit omitted.

Summary for this molecule, CNC(=O)CCCn1c(-c2cncc3ccccc23)nc2cccc(C(=O)N[C@@H](C)c3ccc4ccccc4c3)c21 [CDD-1845] : half-life is 1.14

====

Parameter Ki: see the listing below.
# subject of test: SARS-CoV-2 M^pro (Severe acute respiratory syndrome coronavirus 2)
# Construct: the gene for M^pro (ORF1ab residues 3264 to 3569, GenBank code: MN908947.3); Sumo fusion with M^pro cleavage site (SAVLQ↓SGFRK) (N, cleaved yes); 6xHis-tag behind PreScission site (SGVTFQ↓GP) (C); made in house; host or cells: E. coli BL21(DE3)
# assay comment: M^pro enzyme inhibition assay, proteolytic cleavage of fluorescent peptide reporter, Ki by Morrison equation
# Type: biochemical
# experimental setup: read-out: Ki
Give the value in nM but do not write nM after it.

Reference set, count: 3
CCC[C@H](NC(=O)c1cccc2nc(-c3cncc4ccccc34)n([C@H]3CC[C@H](C(=O)NC)C3)c12)c1ccc(C(F)(F)F)cc1 ... 620
CCC[C@H](NC(=O)c1cccc2nc(-c3cncc4ccccc34)n(C3CCNCC3)c12)c1ccc(C(F)(F)F)cc1 ... 1470
CNC(=O)CCCn1c(-c2cncc3ccccc23)nc2cccc(C(=O)NCc3ccc4ccccc4c3)c21 ... 51

// next entry
Form: molecule = CNC(=O)[C@H]1C[C@H](n2c(-c3cncc4ccccc34)nc3cccc(C(=O)N[C@@H](C)c4ccccc4)c32)C1 ; Ki = 571

====

# subject of test: SARS-CoV-2 M^pro (Severe acute respiratory syndrome coronavirus 2, UniProt P0DTD1)
# Construct: the gene for M^pro (ORF1ab residues 3264 to 3569, GenBank code: MN908947.3); Sumo fusion with M^pro cleavage site (SAVLQ↓SGFRK) (N, cleaved yes); 6xHis-tag behind PreScission site (SGVTFQ↓GP) (C); made in house; host or cells: E. coli BL21(DE3)
# assay comment: M^pro enzyme inhibition assay, proteolytic cleavage of fluorescent peptide reporter, Ki by Morrison equation
# Format: biochemical
# experimental setup: Fig. 2, Suppl. Fig. 1; construct not given; Inactive: inhibited M^pro activity by less than 90% with 25 μM; read-out: Ki
Reported values of pKi for individual entries
pKi here is simply -log10 of the concentration when that concentration is written in mol/L.

CCC[C@H](NC(=O)c1cccc2nc(-c3cncc4ccccc34)n([C@H]3C[C@H](C(=O)NC)C3)c12)c1ccc(OC(F)F)cc1 ... 7.85
CCC[C@H](NC(=O)c1cccc2nc(-c3cncc4ccccc34)n([C@H]3C[C@H](C(=O)NC)C3)c12)c1cccc(C(F)(F)F)c1 ... 7.54
CCC[C@H](NC(=O)c1cccc2nc(-c3cncc4ccccc34)n(CCCC(=O)NC)c12)c1ccc(C(F)(F)F)cc1 ... 8.22

Sure, the documented pKi for CNC(=O)[C@H]1C[C@H](n2c(-c3cncc4ccccc34)nc3cccc(C(=O)N[C@@H](C)c4ccc(C(F)(F)F)cc4)c32)C1 is 7.34

====

# subject of test: SARS-CoV-2 M^pro (Severe acute respiratory syndrome coronavirus 2)
# Construct: the gene for M^pro (ORF1ab residues 3264 to 3569, GenBank code: MN908947.3); Sumo fusion with M^pro cleavage site (SAVLQ↓SGFRK) (N, cleaved yes); 6xHis-tag behind PreScission site (SGVTFQ↓GP) (C); made in house; host or cells: E. coli BL21(DE3)
# assay comment: M^pro enzyme inhibition assay, proteolytic cleavage of fluorescent peptide reporter, Ki by Morrison equation
# Type: biochemical
# experimental setup: read-out: Mpro Ki
parameter: Ki (µM)
Respond numerically; units are µM and should not be typed.

// known answers, use as guide
CCC[C@H](NC(=O)c1cccc2nc(-c3cncc4ccccc34)n(C3CCNCC3)c12)c1ccc(C(F)(F)F)cc1 [CDD-1818] ... 1.71
CNC(=O)CCCn1c(-c2cnccc2C)nc2cccc(C(=O)N[C@@H](C)c3ccc4ccccc4c3)c21 [CDD-1924] ... 0.426

The compound identified as CNC(=O)CCCn1c(-c2cncc3ccccc23)nc2cccc(C(=O)NCc3ccc4ccccc4c3)c21 [CDD-1925] registered its Ki at 0.042
